- Test Settings: in n-propanol, 278.2 K
Measured Quantity: solubility (mole fraction)
# respond with the number and nothing more

Q) # solubility (mole fraction) lookup, item Cc1cc(=O)c(C(=O)N[C@@H](C(=O)N[C@@H]2C(=O)N3C(C(=O)O)=C(CSc4nnnn4C)CS[C@H]23)c2ccc(O)cc2)c[nH]1
A) 0.000242

----------
- Test Settings: in ethanol, 293.2 K
Measured Quantity: solubility (mole fraction)

Q) Give the measured solubility (mole fraction) of Cc1cc(=O)c(C(=O)N[C@@H](C(=O)N[C@@H]2C(=O)N3C(C(=O)O)=C(CSc4nnnn4C)CS[C@H]23)c2ccc(O)cc2)c[nH]1 .
A) 0.00069

----------
- Test Settings: in water, 298.2 K
Measured Quantity: solubility (mole fraction)
Field format: numeric only.

Q) State the recorded solubility (mole fraction) for this entry: Cc1cc(=O)c(C(=O)N[C@@H](C(=O)N[C@@H]2C(=O)N3C(C(=O)O)=C(CSc4nnnn4C)CS[C@H]23)c2ccc(O)cc2)c[nH]1
A) 8.5e-07

----------
- Test Settings: in ethanol, 288.2 K
Measured Quantity: solubility (mole fraction)

Q) I am curious: what solubility (mole fraction) value has been reported for Cc1cc(=O)c(C(=O)N[C@@H](C(=O)N[C@@H]2C(=O)N3C(C(=O)O)=C(CSc4nnnn4C)CS[C@H]23)c2ccc(O)cc2)c[nH]1 ?
A) 0.000592

----------
- Test Settings: in water, 278.2 K
Measured Quantity: solubility (mole fraction)
Write the number on its own, no unit after it.

Q) Please report the recorded solubility (mole fraction) for Cc1cc(=O)c(C(=O)N[C@@H](C(=O)N[C@@H]2C(=O)N3C(C(=O)O)=C(CSc4nnnn4C)CS[C@H]23)c2ccc(O)cc2)c[nH]1 .
A) 4.04e-07

----------
- Test Settings: in water, 303.2 K
Measured Quantity: solubility (mole fraction)
Reply with the value as a number alone.

Q) Can you look up the measured solubility (mole fraction) of Cc1cc(=O)c(C(=O)N[C@@H](C(=O)N[C@@H]2C(=O)N3C(C(=O)O)=C(CSc4nnnn4C)CS[C@H]23)c2ccc(O)cc2)c[nH]1 for me?
A) 1.04e-06

----------
- Test Settings: in isopropanol, 298.2 K
Measured Quantity: solubility (mole fraction)
Number, no unit, nothing else.

Q) Entry under review: Cc1cc(=O)c(C(=O)N[C@@H](C(=O)N[C@@H]2C(=O)N3C(C(=O)O)=C(CSc4nnnn4C)CS[C@H]23)c2ccc(O)cc2)c[nH]1 . Reported solubility (mole fraction)?
A) 0.000297

----------
- Test Settings: in n-propanol, 298.2 K
Measured Quantity: solubility (mole fraction)
Just the number, please, no unit attached.

Q) Fill in the blank: the reported solubility (mole fraction) of Cc1cc(=O)c(C(=O)N[C@@H](C(=O)N[C@@H]2C(=O)N3C(C(=O)O)=C(CSc4nnnn4C)CS[C@H]23)c2ccc(O)cc2)c[nH]1 is ____.
A) 0.000407

----------
- Test Settings: in isopropanol, 303.2 K
Measured Quantity: solubility (mole fraction)
Form field (numeric): enter value without unit.

Q) I have this compound here, Cc1cc(=O)c(C(=O)N[C@@H](C(=O)N[C@@H]2C(=O)N3C(C(=O)O)=C(CSc4nnnn4C)CS[C@H]23)c2ccc(O)cc2)c[nH]1 , and I need its recorded solubility (mole fraction).
A) 0.000376
